# Test system: COLO 205
# assayProcedure: Antiproliferative activity against human COLO205 cells harboring BRAF mutant/wild type KRAS/wild type PIK3CA after 72 hrs by CCK8 assay
# protocolConditions: COLO 205, 72 h
pIC50: −log10 of the molar value.
reportedMetric: pIC50

molecule="Cn1cnc2c(F)c(Nc3ccc(Br)cc3Cl)c(C(=O)NOCCO)cc21 [SELUMETINIB]" reportedmetric=pIC50 recordedresult=7.23

1: O=C(NOCCCO)c1cc2ccoc2c(F)c1Nc1ccc(I)cc1F
2: O=C(NOCCO)c1cc2c(c(Cl)c1Nc1ccc(I)cc1F)OCC2
Req: Which record shows the lower pIC50: the first, 1 , or the second, 2 ? Your answer should be the label attached to the chosen record.
Resp: 1
(1: 7.12, 2: 7.42)
